Here, each record is paired with measured IC50 data.
target: Phosphodiesterase 7 (Homo sapiens, UniProt Q13946+Q9NP56); assay: Inhibition of PDE7 catalytic domain (unknown origin) using [3H]-cAMP as substrate after 1 hr by scintillation proximity assay; type: protein assay

SMILES_REPRESENTATION	SUBJECT_OF_TEST	IC50
Brc1cc(Br)c2c(SCc3ccc(-c4cccc(-c5nnn[nH]5)c4)cc3)nc(CCc3ccccc3)nc2c1	Phosphodiesterase 7 (Homo sapiens, UniProt Q13946+Q9NP56)	> 100 µM
COC(=O)c1ccccc1-c1ccc(CSc2nc(C(C)C)nc3ccccc23)cc1	Phosphodiesterase 7 (Homo sapiens, UniProt Q13946+Q9NP56)	> 100 µM
CC(C)c1nc(SCc2ccc(-c3ccccc3C#N)cc2)c2ccccc2n1	Phosphodiesterase 7 (Homo sapiens, UniProt Q13946+Q9NP56)	> 100 µM
N#Cc1ccccc1-c1ccc(CSc2ncnc3ccccc23)cc1	Phosphodiesterase 7 (Homo sapiens, UniProt Q13946+Q9NP56)	> 100 µM
Cc1nc(SCc2ccc(-c3ccccc3C#N)cc2)c2ccccc2n1	Phosphodiesterase 7 (Homo sapiens, UniProt Q13946+Q9NP56)	> 100 µM
